target: Tumor necrosis factor (Homo sapiens, UniProt P01375)
Sequence (P01375 whole entry): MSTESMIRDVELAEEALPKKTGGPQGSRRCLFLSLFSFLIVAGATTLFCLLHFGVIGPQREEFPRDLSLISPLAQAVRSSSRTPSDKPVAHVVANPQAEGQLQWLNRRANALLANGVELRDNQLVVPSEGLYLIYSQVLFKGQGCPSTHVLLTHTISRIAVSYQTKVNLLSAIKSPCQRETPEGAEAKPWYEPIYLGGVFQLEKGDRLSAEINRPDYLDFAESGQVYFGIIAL
assay-endpoint: Kd (nM)
All answers are understood in nM, so give the number only.

Asked: Find the measured Kd of C[C@H](CC(=O)C[C@@H](C)[C@H]1C[C@@H](O)[C@@]2(C)C3=C(C(=O)C[C@@]12C)[C@@]1(C)CCC(=O)C(C)(C)[C@H]1C[C@@H]3O)C(=O)O with Tumor necrosis factor (Homo sapiens, UniProt P01375) as test system.
Given back: 8
